# measurementTarget: ABL (Homo sapiens)
# Construct: purchased Perkin Elmer ProfilerPro assay kit 1
# Sequence (P00519 whole entry): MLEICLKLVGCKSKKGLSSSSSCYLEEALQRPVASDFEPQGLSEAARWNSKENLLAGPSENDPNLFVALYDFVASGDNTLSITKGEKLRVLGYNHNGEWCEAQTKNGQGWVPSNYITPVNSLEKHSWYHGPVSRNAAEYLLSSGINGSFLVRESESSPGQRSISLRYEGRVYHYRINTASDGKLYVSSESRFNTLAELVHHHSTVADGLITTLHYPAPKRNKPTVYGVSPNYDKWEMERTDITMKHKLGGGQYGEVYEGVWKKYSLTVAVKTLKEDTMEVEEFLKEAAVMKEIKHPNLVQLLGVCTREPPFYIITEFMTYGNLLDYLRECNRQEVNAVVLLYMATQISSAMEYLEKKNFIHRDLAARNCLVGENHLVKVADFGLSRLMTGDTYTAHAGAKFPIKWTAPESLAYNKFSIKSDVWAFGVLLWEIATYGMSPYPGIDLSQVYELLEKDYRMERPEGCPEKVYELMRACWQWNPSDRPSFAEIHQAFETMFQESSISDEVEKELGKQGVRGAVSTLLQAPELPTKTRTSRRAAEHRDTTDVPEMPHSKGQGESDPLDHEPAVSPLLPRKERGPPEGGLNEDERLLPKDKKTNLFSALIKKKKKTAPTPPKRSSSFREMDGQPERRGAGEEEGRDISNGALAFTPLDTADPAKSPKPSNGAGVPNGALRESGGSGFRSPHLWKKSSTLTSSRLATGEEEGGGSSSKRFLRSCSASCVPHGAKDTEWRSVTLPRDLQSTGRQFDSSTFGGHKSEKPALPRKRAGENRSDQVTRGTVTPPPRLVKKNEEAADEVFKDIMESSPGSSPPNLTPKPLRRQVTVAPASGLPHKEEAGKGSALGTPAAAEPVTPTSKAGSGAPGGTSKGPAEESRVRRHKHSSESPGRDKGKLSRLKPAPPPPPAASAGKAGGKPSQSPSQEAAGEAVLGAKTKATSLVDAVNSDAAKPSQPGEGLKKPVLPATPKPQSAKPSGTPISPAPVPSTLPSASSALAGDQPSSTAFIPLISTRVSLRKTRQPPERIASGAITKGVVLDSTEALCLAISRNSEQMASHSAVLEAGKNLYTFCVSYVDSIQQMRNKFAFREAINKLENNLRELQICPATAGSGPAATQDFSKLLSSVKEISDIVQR
# testMethodNotes: 26-kinase panel mobility shift assay, single concentration
# Format: biochemical
# details: read-out: % Inhibition ABL
Rule: inhibition at 100 µM under 40% gives -1, otherwise 1.

query: Entry `COc1ncc(-c2ccncc2)cc1N` : is its inhibition at 100 µM no less than 40%?
result: -1

query: # bool: inhibition at 100 µM of `Nc1ccc[nH]c1=O` >= 40%
result: -1

query: Given `Nc1cc(-c2ccnc(NC3CC3)n2)c[nH]c1=O` , state whether its inhibition at 100 µM is at least 40%.
result: 1

query: Entry `Nc1cc(-c2ccnc3ccccc23)c[nH]c1=O` : is its inhibition at 100 µM no less than 40%?
result: 1

query: Tell me whether inhibition at 100 µM is at least 40% here: `CNc1nccc(-c2c[nH]c(=O)c(N)c2)n1`
result: 1

query: Evaluate `Cc1nc(O)c(N)cc1-c1ccncc1` : inhibition at 100 µM at minimum 40%?
result: -1

query: # bool: inhibition at 100 µM of `Cn1cc(-c2c[nH]c(=O)c(N)c2)cn1` >= 40%
result: 1

----------
Would you mind telling me the reported MPS1 ligand efficiency (LE) of each entry?
# measurementTarget: MPS1 (Homo sapiens)
# Sequence (P33981 whole entry): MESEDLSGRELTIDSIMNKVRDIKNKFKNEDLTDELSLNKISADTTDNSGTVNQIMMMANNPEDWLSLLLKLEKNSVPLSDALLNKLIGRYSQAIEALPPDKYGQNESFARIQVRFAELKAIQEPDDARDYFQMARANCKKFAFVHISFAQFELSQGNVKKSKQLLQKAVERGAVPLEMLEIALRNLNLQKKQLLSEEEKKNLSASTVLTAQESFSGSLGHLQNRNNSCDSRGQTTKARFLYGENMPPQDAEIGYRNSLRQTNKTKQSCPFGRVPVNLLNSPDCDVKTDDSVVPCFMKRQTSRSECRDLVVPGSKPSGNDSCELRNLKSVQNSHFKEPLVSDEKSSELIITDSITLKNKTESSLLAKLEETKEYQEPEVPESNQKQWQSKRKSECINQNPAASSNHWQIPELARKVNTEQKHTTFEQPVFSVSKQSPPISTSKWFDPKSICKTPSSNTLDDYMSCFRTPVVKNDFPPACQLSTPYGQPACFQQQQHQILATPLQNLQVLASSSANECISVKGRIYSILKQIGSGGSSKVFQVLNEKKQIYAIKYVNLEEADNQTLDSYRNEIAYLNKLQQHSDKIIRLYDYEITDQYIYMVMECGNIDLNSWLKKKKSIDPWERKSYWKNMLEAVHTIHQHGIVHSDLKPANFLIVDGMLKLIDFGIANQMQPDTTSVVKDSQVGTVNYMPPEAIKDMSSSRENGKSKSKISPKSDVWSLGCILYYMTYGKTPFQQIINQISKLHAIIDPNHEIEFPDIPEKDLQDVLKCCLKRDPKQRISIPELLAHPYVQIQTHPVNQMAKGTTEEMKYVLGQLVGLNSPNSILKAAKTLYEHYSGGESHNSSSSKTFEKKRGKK
# Assay type: biochemical
# details: from Ki
// return a plain number; no unit text

query: // MPS1 ligand efficiency (LE) lookup, key: Nc1cc(-c2ccccc2)cnc1O [Compound 9, 3-Amino-5-phenyl-pyridin-2-one]
result: 0.38

query: I have this compound here, Nc1cc(-c2cccnc2)c[nH]c1=O [Compound 11] , and I need its recorded MPS1 ligand efficiency (LE).
result: 0.39

query: Fill blank: measured MPS1 ligand efficiency (LE) of the compound Nc1cc(-c2ccnc3ccccc23)c[nH]c1=O [Compound 6] is ____.
result: 0.34

query: What measured MPS1 ligand efficiency (LE) goes with Cn1cc(-c2c[nH]c(=O)c(N)c2)cn1 [Compound 2] ?
result: 0.39

query: GET /values?readout=MPS1 ligand efficiency (LE)&item= O=C(Nc1cc(-c2ccncc2)c[nH]c1=O)c1ccccc1 [Compound 16]
result: 0.33

query: Query (compound): Nc1cc(-c2ccnc(NC3CC3)n2)c[nH]c1=O [Compound 8] ; field requested: MPS1 ligand efficiency (LE)
result: 0.37

query: Given CN1CCN(c2ccc(C(=O)Nc3cc(-c4ccncc4)c[nH]c3=O)cc2)CC1 [Compound 22] , state its recorded MPS1 ligand efficiency (LE).
result: 0.25

query: Sample O=C(Nc1cc(-c2ccnc(NC3CC3)n2)c[nH]c1=O)c1ccccc1 [Compound 24] — what was its MPS1 ligand efficiency (LE)?
result: 0.29

query: Could you tell me which MPS1 ligand efficiency (LE) is on file for CNc1nccc(-c2c[nH]c(=O)c(N)c2)n1 [Compound 7] ?
result: 0.39

query: // lookup MPS1 ligand efficiency (LE) for O=C(Nc1cc(-c2ccncc2)c[nH]c1=O)c1ccc(N2CCCCC2)cc1 [Compound 23]
result: 0.27

query: Consider the compound shown here: Nc1cc(-c2cncnc2)c[nH]c1=O [Compound 10] What is its recorded MPS1 ligand efficiency (LE)?
result: 0.35

query: Which value of MPS1 ligand efficiency (LE) has been reported for COc1ncc(-c2ccncc2)cc1N [Compound 5, 6-Methoxy-3,4′-bipyridin-5-amine] in the records?
result: 0.37
